- measured.target: human V2 receptor (Homo sapiens, UniProt P30518)
- Construct: expressed in transfected cells; host or cells: CHO K1 (ATCC) expressing firefly luciferase under a CRE-responsive promoter
- Sequence (P30518 whole entry): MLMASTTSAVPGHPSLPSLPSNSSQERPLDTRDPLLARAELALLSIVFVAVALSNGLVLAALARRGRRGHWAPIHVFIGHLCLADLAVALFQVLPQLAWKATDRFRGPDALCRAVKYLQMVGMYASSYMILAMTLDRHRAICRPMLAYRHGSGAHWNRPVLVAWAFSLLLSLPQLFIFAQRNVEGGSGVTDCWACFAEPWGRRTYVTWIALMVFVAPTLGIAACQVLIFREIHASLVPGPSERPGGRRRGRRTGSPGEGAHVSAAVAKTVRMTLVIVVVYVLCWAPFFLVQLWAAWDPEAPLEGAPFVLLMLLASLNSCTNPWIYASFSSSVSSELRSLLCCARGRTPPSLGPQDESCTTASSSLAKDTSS
- measurement.protocol: Cellular in vitro assay for determining vasopressin receptor activity, V2 receptor cell line (CHO, CRE-luciferase)
- Type: cell-based
- condition.description: CHO cell line transfected with human V2 receptor; [Arg8]-vasopressin at EC50 concentration, 3 hours; read-out: IC50 hV2
endpoint.label: IC50 (nM)
Output spec: scalar in nM, unitless text.

Please review the entries below; each comes with its answer.
{"columns": ["compound", "measured.target", "measurement.unit", "IC50"],
 "data": [
  ["O=C1CN(C(=O)c2ccccc2-n2cnc(Cn3nc(-c4ccc(Cl)cc4)n(C[C@H](O)C(F)(F)F)c3=O)n2)CCN1", "human V2 receptor (Homo sapiens, UniProt P30518)", "nM", 7350],
  ["O=C(CC1CCCO1)Nc1ncccc1-n1cnc(Cn2nc(-c3ccc(Cl)cc3)n(C[C@H](O)C(F)(F)F)c2=O)n1 (stereo partly shown)", "human V2 receptor (Homo sapiens, UniProt P30518)", "nM", 1060]
]}

QUERY: Look up IC50: CC(C)(O)CNc1ncccc1-n1cnc(Cn2nc(-c3ccc(Cl)cc3)n(C[C@H](O)C(F)(F)F)c2=O)n1
RESULT: 157

QUERY: Could you share which IC50 value was measured for CC(C)(C)CNC(=O)c1ccccc1-n1cnc(Cn2nc(-c3ccc(Cl)cc3)n(C[C@H](O)C(F)(F)F)c2=O)n1 ?
RESULT: 275
